Recorded values, source patent US20230174523A1.

Target: TRAP1 enzyme (Homo sapiens, UniProt Q12931)
Sequence (Q12931 60-704): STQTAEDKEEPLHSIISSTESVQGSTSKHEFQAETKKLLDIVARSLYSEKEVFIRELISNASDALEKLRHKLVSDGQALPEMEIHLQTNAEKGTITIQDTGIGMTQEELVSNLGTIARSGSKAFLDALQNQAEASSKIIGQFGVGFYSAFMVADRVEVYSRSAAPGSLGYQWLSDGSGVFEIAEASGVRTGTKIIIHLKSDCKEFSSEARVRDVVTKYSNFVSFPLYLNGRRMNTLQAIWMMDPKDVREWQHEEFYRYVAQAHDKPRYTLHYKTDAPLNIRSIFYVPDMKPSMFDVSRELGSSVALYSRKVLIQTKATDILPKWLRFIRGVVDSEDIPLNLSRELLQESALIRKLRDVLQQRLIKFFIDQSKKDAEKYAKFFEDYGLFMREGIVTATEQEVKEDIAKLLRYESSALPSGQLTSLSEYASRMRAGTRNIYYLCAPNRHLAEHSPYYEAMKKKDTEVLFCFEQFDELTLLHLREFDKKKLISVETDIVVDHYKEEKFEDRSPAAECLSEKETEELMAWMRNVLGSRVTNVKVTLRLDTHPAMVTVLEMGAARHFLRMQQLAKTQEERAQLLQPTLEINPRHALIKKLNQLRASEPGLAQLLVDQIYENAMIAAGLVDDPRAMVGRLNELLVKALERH
Test: Malachite green phosphate assay of TRAP1 ATPase activity
Type: biochemical
Settings: read-out: Malachite Green Fluor DRC: Mean Emax
Procedure: The Potency of test compounds to modulate the ATPase activity of TRAP1 enzyme was evaluated using malachite green phosphatase assay. The assay is based on quantification of the green complex formed between Malachite Green, molybdate and inorganic phosphate generated in the phosphatase reaction. Assays were performed using a Malachite Green assay kit. […] The reaction was stopped by adding 12% H2SO4 and the plate was read for fluorescence at 620 nm (λex=573 nm). […]
measure: Emax

COc1ccc(NC(=O)c2cnccc2C(C)C)cc1S(=O)(=O)Nc1ccc(Cl)cc1: 160 to 199%
CCOC(=O)Cc1ccc(NC(=O)c2cnccc2C)cc1S(=O)(=O)Nc1ccc(C)cc1: 160 to 199%
COc1ccc(NC(=O)c2cnc(-c3ccccc3)[nH]2)cc1S(=O)(=O)N(CCCCCCO)c1ccc(Br)cc1: 160 to 199%
COc1ccc(NC(=O)c2cnccc2C)cc1S(=O)(=O)Nc1c(C)cccc1C: 160 to 199%
Cc1ccc2c(c1)OCCN2S(=O)(=O)c1cccc(NC(=O)c2ncco2)c1: 200 to 300%

Moving on to the next compound.
Inquiry: What value of Emax has been reported for the following compound? COc1ccc(NC(=O)c2cnc(-c3ccccc3)o2)cc1S(=O)(=O)Nc1ccc(C(F)(F)F)cc1
Reply text: 200 to 300%
